# TESTED_ON: Pol II (Homo sapiens, UniProt P24928)
# Construct: HeLaScribe® nuclear extract containing Pol II and all other transcription factors; purchased Promega; host or cells: HeLa nuclear extract (endogenous protein)
# EXPERIMENT_DESCRIPTION: In vitro transcription runoff assay using HeLaScribe nuclear extract
# Assay type: biochemical
# EXPERIMENTAL_CONTEXT: 300 nM; mean ± standard deviation
Starred links: 1 amine or outer side, 2 acyl side, 3 side chain; linkers in the order of their positions; H or OH if unused. Positions of bridges follow the written chain, without caps; N, C: chain ends. Non-standard residues stand in square brackets, D forms with d. Residues, ends and D or L forms follow the SMILES beside them. Trp(2-yl) = O=C([C@H](Cc1c([*:3])[nH]c2ccccc12)N[*:1])[*:2]; Pro(4R-SH) = O=C([C@@H]1C[C@@H](S[*:3])CN1[*:1])[*:2]; Ile(4R-OH,5-OH) = C[C@H]([C@H](N)C(=O)O)[C@@H](O)CO
QUANTITY_NAME: Transcription activity E (%)
Express it in %; write the number only.

Look up Transcription activity E (%): CC[C@H](C)[C@@H]1NC(=O)CNC(=O)[C@@H]2Cc3c([nH]c4ccccc34)SC[C@H](NC(=O)CNC1=O)C(=O)N[C@@H](CC(N)=O)C(=O)N1C[C@H](S)C[C@H]1C(=O)N[C@@H]([C@@H](C)[C@@H](O)CO)C(=O)N2 [Compound 5, SH-Pro-amanitin] (cyclo(CN[Pro(4R-SH)][Ile(4R-OH,5-OH)][Trp(2-yl)]GIG); thioether 1-5)
71.2

* * *

Consider the following molecules and their measured IC50 readings.
# TESTED_ON: Pol II (Homo sapiens)
# Construct: HeLaScribe® nuclear extract containing Pol II and all other transcription factors; purchased Promega; host or cells: HeLa nuclear extract (endogenous protein)
# EXPERIMENT_DESCRIPTION: In vitro transcription runoff assay using HeLaScribe nuclear extract
# Format: biochemical
# EXPERIMENTAL_CONTEXT: IC50 (nM), Table 12; n = 3; high values estimated from activity at [I]=1.0 μM
Starred links: 1 amine or outer side, 2 acyl side, 3 side chain; linkers in the order of their positions; H or OH if unused. Positions of bridges follow the written chain, without caps; N, C: chain ends. Non-standard residues stand in square brackets, D forms with d. Residues, ends and D or L forms follow the SMILES beside them. Trp(2-yl) = O=C([C@H](Cc1c([*:3])[nH]c2ccccc12)N[*:1])[*:2]; Pro(trans-4-guanidino) = N=C(N)N[C@H]1CN[C@H](C(=O)O)C1; Pro(4R-SH) = O=C([C@@H]1C[C@@H](S[*:3])CN1[*:1])[*:2]; Ile(4R-OH,5-OH) = C[C@H]([C@H](N)C(=O)O)[C@@H](O)CO; X1 = N#C[C@@H]1C[C@@H](C(=O)[*:2])N([*:1])C1
Express it in nM; write the number only.

Examples from the recorded data:
MOLECULE: CC[C@H](C)[C@@H]1NC(=O)CNC(=O)[C@@H]2Cc3c([nH]c4ccccc34)SC[C@H](NC(=O)CNC1=O)C(=O)N[C@@H](CC(N)=O)C(=O)N1C[C@H](C#N)C[C@H]1C(=O)N[C@@H]([C@@H](C)[C@@H](O)CO)C(=O)N2 [Compound 4, CN-Pro-amanitin] (cyclo(CN[X1][Ile(4R-OH,5-OH)][Trp(2-yl)]GIG); thioether 1-5)
TESTED_ON: Pol II (Homo sapiens)
IC50 / nM: 480

MOLECULE: CC[C@H](C)[C@@H]1NC(=O)CNC(=O)[C@@H]2Cc3c([nH]c4ccccc34)SC[C@H](NC(=O)CNC1=O)C(=O)N[C@@H](CC(N)=O)C(=O)N1C[C@H](NC(=N)N)C[C@H]1C(=O)N[C@@H]([C@@H](C)[C@@H](O)CO)C(=O)N2 [Compound 7, Gdn-Pro-amanitin] (cyclo(CN[Pro(trans-4-guanidino)][Ile(4R-OH,5-OH)][Trp(2-yl)]GIG); thioether 1-5)
TESTED_ON: Pol II (Homo sapiens)
IC50 / nM: 410

Turning now to a further record.
Look up IC50: CC[C@H](C)[C@@H]1NC(=O)CNC(=O)[C@@H]2Cc3c([nH]c4ccccc34)SC[C@H](NC(=O)CNC1=O)C(=O)N[C@@H](CC(N)=O)C(=O)N1C[C@H](S)C[C@H]1C(=O)N[C@@H]([C@@H](C)[C@@H](O)CO)C(=O)N2 [Compound 5, SH-Pro-amanitin] (cyclo(CN[Pro(4R-SH)][Ile(4R-OH,5-OH)][Trp(2-yl)]GIG); thioether 1-5)
910
